Test system: COLO 205 colon
Assay: NCI-60 one-dose screen, 48 h
Conditions: 10 µM
About 83,000 compounds went through this panel and 20% of them were active in at least one assay; those are over-represented in the sample as a whole. The source made the active and inactive calls. Rule for the calls: active = growth percent below 10; inactive = the rest.
Hi there, use one of these labels in your reply, thanks! true (1) for active, false (0) for inactive

Observe how each entry below is paired with its result.
compound: COC12C(COC(N)=O)C3=C(C(=O)C(C)=C(N)C3=O)N1CC1C2N1C (configuration not stated)
target system: COLO 205 colon
cat: false (0)
//
compound: N#CCc1ccccc1
target system: COLO 205 colon
cat: false (0)
//
compound: COC1CC2C=C(C)/C=C/C=C/C(=O)NC(c3ccccc3)C/C=C/CCC(O)CC(=O)C2=C1O (configuration not stated)
target system: COLO 205 colon
cat: true (1)

Ask: Hi, do you know how CCOP(=O)(OCC)C(O)c1ccccc1Cl (configuration not stated) came out in this test?
Reply: false (0)

Ask: Same question for "O=C1C(=O)c2ccccc2-c2ccccc21" please.
Reply: true (1)

Ask: Same question for "COc1ccc(/C=C(\C)[N+](=O)[O-])cc1OC" please.
Reply: true (1)

Ask: Same question for "CC/C(=C/c1ccc(OC)cc1OC)[N+](=O)[O-]" please.
Reply: true (1)

* * *

Test system: SNB-75 CNS
Assay: NCI-60 one-dose screen, 48 h (100 = growth as untreated, 0 = no growth, -100 = all killed)
Conditions: 10 µM
Compounds without any hit were thinned out: in the full panel of roughly 83,000, 20% have a hit.
Response key: true means growth >= -40%; false means growth < -40%.

Observe how each entry below is paired with its result.
molecule: C[CH2][Hg][S]c1ccccc1C(=O)O
target system: SNB-75 CNS
cat: false
--
molecule: COc1cc(/C=C/[N+](=O)[O-])cc(Br)c1OC
target system: SNB-75 CNS
cat: true
--
molecule: CC1CCC2(OC1)OC1C(O)C3C4CCC5CC(OC6OC(CO)C(OC7OC(CO)C(O)C(OC8OCC(O)C(O)C8O)C7OC7OC(CO)C(O)C(OC8OC(CO)C(O)C(O)C8O)C7O)C(O)C6O)C(O)CC5(C)C4CCC3(C)C1C2C (configuration not stated)
target system: SNB-75 CNS
cat: true
--
molecule: COC12c3c(C)cc(O)c4c(=O)occ(c34)C(=O)C1C13COC(=O)c4c(O)cc(C)c(c41)C(=O)C2C3OC(C)=O (configuration not stated)
target system: SNB-75 CNS
cat: true
--
molecule: COC(=O)C1C(O)C(C)C(O)C(C)/C=C\C=C(C)C(=O)Nc2c(C)c(OC(C)=O)c3c(c2O)C(=O)C(C)=C2OCOC(=C23)C(C)=CC(C)(O)C(O)C(C)C1O (configuration not stated)
target system: SNB-75 CNS
cat: true

Ask: Check if growth >= -40% (inclusive). Item: COC1CC2C=C(C)/C=C/C=C/C(=O)NC(c3ccccc3)C/C=C/CCC(O)CC(=O)C2=C1O (configuration not stated)
Reply: false

Ask: Same question for "Cc1ccc(NC(=O)CBr)cc1" please.
Reply: true

Ask: Same question for "CC/C(=C/c1ccc(OC)cc1)[N+](=O)[O-]" please.
Reply: true

Ask: Same question for COC(C(=O)C(O)C(C)O)C1Cc2cc3cc(OC4CC(OC(C)=O)C(OC5CC(O)C(OC)C(C)O5)C(C)O4)cc(O)c3c(O)c2C(=O)C1OC1CC(OC2CC(OC3CC(C)(O)C(OC(=O)C(C)C)C(C)O3)C(O)C(C)O2)C(O)C(C)O1 (configuration not stated) please.
Reply: false

Ask: Same question for "COc1ccc2c(ccc3oc([N+](=O)[O-])cc32)c1" please.
Reply: false

Ask: Same question for "COc1ccc(/C=C\[N+](=O)[O-])cc1OC" please.
Reply: true

Ask: Same question for "CC/C(=C/c1ccc(OC)cc1OC)[N+](=O)[O-]" please.
Reply: true

* * *

System: SF-295 CNS
Experiment: NCI-60 one-dose screen, 48 h (100 = growth as untreated, 0 = no growth, -100 = all killed)
Conditions: 10 µM
This is part of a sample that, as a whole, favours compounds with a hit. Of some 83,000 tested, about 20% had one in any assay.
I'd appreciate it if you could supply growth values for the items below.
One number for each entry, in %.

Example cases with answers are listed next.
compound: O=C1CCC(=O)N1SC(Cl)(Cl)Cl
growth, %: 117
//
compound: O=[N+]([O-])c1cc[n+]([O-])c2ccccc12
growth, %: -17.7
//
compound: COc1ccc2c(ccc3oc([N+](=O)[O-])cc32)c1
growth, %: -0.437
//
compound: COc1ccccc1[As]=[As]c1ccccc1OC (stereo not drawn)
growth, %: -86.4
//
compound: O=[N+]([O-])c1ccc(Br)c([N+](=O)[O-])c1
growth, %: 108
//
compound: CC12OOC(c3ccccc31)c1c2ccc2ccccc12 (stereo not drawn)
growth, %: 82.5
//
compound: CCOP(=O)(OCC)C(O)c1ccccc1Cl (stereo not drawn)
growth, %: 112
//
compound: CC(Cc1ccc2c(c1)OCO2)NN (stereo not drawn)
growth, %: 91
//
compound: CN(C)CC1(N)C(=O)NC(=O)NC1=O
growth, %: 98.8
//
compound: O=C(CBr)Nc1ccccc1
growth, %: 103

Please report growth for every entry that follows.
1. O=S(=O)(F)c1ccc(Cl)cc1
2. CN(CCCl)c1ccc(/C=C/C2=[N+](C)c3ccccc3C2(C)C)cc1
3. CC[C@@]1(O)C[C@H](OC2CC(N(C)C)C(O)C(C)O2)c2c(cc3c(c2O)C(=O)c2c(O)ccc(O)c2C3=O)[C@H]1C(=O)OC (stereo partly drawn)
4. Cc1ccc(NC(=O)CBr)cc1
5. O=[N+]([O-])/C=C\c1ccc2c(c1)OCO2
6. CC(=O)Nc1c2sscc-2n(C)c1=O
7. Cc1cc(C(C)(C)c2ccc(O)c(C)c2)ccc1O
8. O=[P+](O)c1ccccc1

Reply:
1. 114
2. 45.5
3. -81.5
4. 103
5. 83.3
6. -96.5
7. 104
8. 109

* * *

System: NCI-H522 lung
Assay: NCI-60 one-dose screen, 48 h (100 = growth as untreated, 0 = no growth, -100 = all killed)
Settings: 10 µM
About 83,000 compounds went through this panel and 20% of them were active in at least one assay; those are over-represented in the sample as a whole.
I'd appreciate it if you could supply growth values for the items below.
Answers are plain numbers, in %.

Example cases with answers are listed next.
compound: COS(=O)(=O)c1ccccc1
target system: NCI-H522 lung
growth (%): 111
--
compound: [Cl][Sn]([c]1ccccc1)([c]1ccccc1)[c]1ccccc1
target system: NCI-H522 lung
growth (%): -82.2
--
compound: O=[N+]([O-])/C=C/c1ccc(Cl)cc1[N+](=O)[O-]
target system: NCI-H522 lung
growth (%): 42.9

Please report growth for every entry that follows.
1. Cc1ccc(NC(=O)CBr)cc1
2. Oc1ccccc1-c1ccccc1
3. NC(Cc1ccccc1)c1ccccc1 (stereo unspecified)

Reply:
[-55.6, 95.2, 94.5]

Please report growth for every entry that follows.
1. O=[N+]([O-])c1ccc(Br)c([N+](=O)[O-])c1
2. O=[N+]([O-])/C=C\c1ccc2c(c1)OCO2

Reply:
1. -28.5
2. 72.2

* * *

System: SF-268 CNS
Assay: NCI-60 one-dose screen, 48 h (100 = growth as untreated, 0 = no growth, -100 = all killed)
Conditions: 10 µM
The panel holds about 83,000 compounds, 20% with a hit somewhere; the sample as a whole holds those more often.
measured parameter: growth (%)
Numbers only, in %.

compound: CC(Cc1ccc2c(c1)OCO2)NN (centres undefined)
target system: SF-268 CNS
growth [%]: 100
//
compound: CCCCCCCC[N+]12CN3CN(CN(C3)C1)C2
target system: SF-268 CNS
growth [%]: 95
//
compound: N#CCc1ccccc1
target system: SF-268 CNS
growth [%]: 93.4
//
compound: CC(C)c1cc([N+](=O)[O-])cc([N+](=O)[O-])c1O
target system: SF-268 CNS
growth [%]: 102
//
compound: COc1ccc(/C=C(\C)[N+](=O)[O-])cc1OC
target system: SF-268 CNS
growth [%]: 12

Please report growth for every entry that follows.
1. C=C1C(=O)O[C@@H]2C[C@@H](C)[C@@H]3C=CC(=O)[C@@]3(C)[C@@H](O)[C@H]12
2. COc1ccccc1[As]=[As]c1ccccc1OC (centres undefined)
3. O=[N+]([O-])/C=C\c1ccc2c(c1)OCO2
4. CC(C)(C)OOC(=O)/C=C\C(=O)OOC(C)(C)C
5. O=[N+]([O-])c1ccc(N2CCOCC2)c2c1no[n+]2[O-]
6. COC12c3c(C)cc(O)c4c(=O)occ(c34)C(=O)C1C13COC(=O)c4c(O)cc(C)c(c41)C(=O)C2C3OC(C)=O (centres undefined)
7. O=[N+]([O-])c1ccc(N(CCO)CCO)c2c1no[n+]2[O-]

Reply:
-45
-82.9
86.7
93.8
4.58
100
-17.6

Please report growth for every entry that follows.
1. CS(=N)(=O)CCC(N)C(=O)O (centres undefined)
2. NC(=O)c1cc([N+](=O)[O-])c(Cl)c([N+](=O)[O-])c1

Reply:
1: 119; 2: 101

meta.source: PubChem BioAssay (NCI)
